Origin of values: PubChem BioAssay AID2283312

tested_system: rat Vasoactive Intestinal Peptide Receptor (VIP), Non-selective Binding, Vipr1 (gene 24875) (UniProt P30083)
Sequence (P30083 whole entry, looked up): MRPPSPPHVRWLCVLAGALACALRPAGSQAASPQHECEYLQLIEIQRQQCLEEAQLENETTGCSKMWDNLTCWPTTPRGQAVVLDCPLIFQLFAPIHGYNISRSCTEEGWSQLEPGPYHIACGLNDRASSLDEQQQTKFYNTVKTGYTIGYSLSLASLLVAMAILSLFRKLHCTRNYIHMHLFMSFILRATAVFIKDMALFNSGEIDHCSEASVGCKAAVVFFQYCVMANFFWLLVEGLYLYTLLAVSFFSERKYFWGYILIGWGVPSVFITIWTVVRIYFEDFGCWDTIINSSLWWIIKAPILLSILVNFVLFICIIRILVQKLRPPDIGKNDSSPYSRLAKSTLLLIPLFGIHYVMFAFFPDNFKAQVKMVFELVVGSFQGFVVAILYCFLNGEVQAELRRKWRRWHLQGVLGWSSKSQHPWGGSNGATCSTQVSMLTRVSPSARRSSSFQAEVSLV
procedure_summary: NVS_GPCR_rVIP_NonSelective: NovaScreen (NVS) G Protein-Coupled Receptor Assay for rat Vasoactive Intestinal Peptide Receptor (VIP), Non-selective Binding
Results filed as inconclusive are left out. Active and inactive are the calls of the source. Rule for the calls: active = hit-call score of the fitted dose curve at least 0.9, where 1 is the maximum; inconclusive = response in the unintended direction; inactive = score below 0.9.
Return exactly one item of active, inactive

Use the examples below as a reference point.
CC(C)N1C(=O)N(c2ccccc2)CSC1=NC(C)(C)C : inactive
Nc1c(Cl)c(F)nc(OCC(=O)O)c1Cl : inactive
CC(=O)[O][Hg][c]1ccccc1 : inactive
C=C(C)C(=O)[O][Sn]([CH2]CCC)([CH2]CCC)[CH2]CCC : active

Now consider a different compound.
What did this assay record as the result for CC[C@H](C)[C@H]1O[C@]2(C=C[C@@H]1C)C[C@@H]1C[C@@H](C/C=C(\C)[C@@H](O[C@H]3C[C@H](OC)[C@@H](O[C@H]4C[C@H](OC)[C@@H](NC)[C@H](C)O4)[C@H](C)O3)[C@@H](C)/C=C/C=C3\CO[C@@H]4[C@H](O)C(C)=C[C@@H](C(=O)O1)[C@]34O)O2 ?
inactive
